measurement_target: T1, full length recombinant human 2N4R tau (amino acids 1-441) (human, UniProt P10636 1-758)
T1 construct: Bought (rPeptide); recombinant, non-phosphorylated; also called recombinant tau
T1 sequence (P10636 other isoform, or with tags, fused parts or gaps limits assumed): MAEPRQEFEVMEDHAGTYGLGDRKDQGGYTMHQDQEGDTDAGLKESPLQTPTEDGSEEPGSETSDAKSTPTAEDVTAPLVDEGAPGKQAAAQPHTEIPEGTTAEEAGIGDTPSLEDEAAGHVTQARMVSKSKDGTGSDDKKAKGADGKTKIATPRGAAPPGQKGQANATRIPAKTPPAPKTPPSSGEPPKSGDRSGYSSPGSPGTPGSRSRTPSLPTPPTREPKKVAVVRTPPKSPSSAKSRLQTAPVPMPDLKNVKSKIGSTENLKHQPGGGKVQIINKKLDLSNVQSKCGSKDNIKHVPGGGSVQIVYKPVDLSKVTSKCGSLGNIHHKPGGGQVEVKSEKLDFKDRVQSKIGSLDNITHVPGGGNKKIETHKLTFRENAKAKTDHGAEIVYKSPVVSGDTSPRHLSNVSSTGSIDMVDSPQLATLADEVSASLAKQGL
procedure_summary: SPR Biacore MCK, purified IgG on Protein A, tau analyte
List of pKd values.
// pKd is dimensionless: -log10 of concentration (M)

Clone #28 VH0VK0 chimeric human IgG1 (rabbit VH and VK of Clone 1) (antibody, V domains shown, also called VH0Vκ0; #28 VH0κ0) VH: QSLEESGGGLVKPGGTLTLTCTVSGFSLNNYDMSWVRQAPGKGLEWIGTVSTTYRRYYASWAKGRFTISKTSSTTVDLKMTSLTTEDTATYFCAASGIWGPGTLVTVSL VL: AQVLTQTTSPVSAAVGGTVTINCQSSQRVYSNYLAWYQQKPGQPPKRLIFLASTLESGVPSRFSGSGSGTQFTLTISDLECDDAATYYCAGTYTGSIWAFGGGTEVVVK; 7.60

Then there is this binder:
What does the record list as pKd for Clone 24 (VH3Vκ4), humanised variant of clone #28, human IgG1 (antibody, V domains shown, also called VH3VK4; VH3Vk4) VH: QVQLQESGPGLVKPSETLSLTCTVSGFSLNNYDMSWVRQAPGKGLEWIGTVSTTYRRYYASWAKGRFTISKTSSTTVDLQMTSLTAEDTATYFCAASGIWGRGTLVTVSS VL: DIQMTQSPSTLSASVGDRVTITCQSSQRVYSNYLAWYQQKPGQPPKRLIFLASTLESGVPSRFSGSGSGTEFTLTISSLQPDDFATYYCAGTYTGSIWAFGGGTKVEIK ?
7.77
